Below are compounds with their IC50 as measured on Matrilysin (Homo sapiens).
Sequence (P09237 whole entry): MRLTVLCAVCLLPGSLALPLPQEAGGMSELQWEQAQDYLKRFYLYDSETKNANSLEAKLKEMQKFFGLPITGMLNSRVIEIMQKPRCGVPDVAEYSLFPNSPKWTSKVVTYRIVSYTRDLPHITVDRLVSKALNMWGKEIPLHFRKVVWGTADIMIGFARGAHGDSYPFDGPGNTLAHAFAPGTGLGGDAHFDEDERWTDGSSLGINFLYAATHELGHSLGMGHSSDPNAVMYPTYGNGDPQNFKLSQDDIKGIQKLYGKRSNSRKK
Please state the figure in nM; there is no need to write the unit.

{"columns": ["COMPOUND", "IC50, nM"],
 "data": [
  ["CCCN(CC1CC1)C(=O)N1CCN(S(=O)(=O)c2ccc(OC)cc2)C(C(=O)NO)C1 (centres undefined)", 2090],
  ["COc1ccc(S(=O)(=O)N2CCN(C(=O)c3snnc3C)CC2C(=O)NO)cc1 (centres undefined)", 6090],
  ["COc1ccc(S(=O)(=O)N2CCN(Cc3ccccc3)CC2C(=O)NO)cc1 (centres undefined)", 14000],
  ["COc1ccc(S(=O)(=O)N2CCN(C(=O)OCc3ccccc3)CC2C(=O)NO)cc1 (centres undefined)", 232],
  ["CCCCCC(=O)N1CCN(S(=O)(=O)c2ccc(OC)cc2)C(C(=O)NO)C1 (centres undefined)", 787]
]}

Quote Matrilysin (Homo sapiens) IC50 for entry COc1ccc(S(=O)(=O)N2CCN(C(=O)Nc3cccc(OC)c3)CC2C(=O)NO)cc1 (centres undefined) .
1100

Quote Matrilysin (Homo sapiens) IC50 for entry COc1ccc(S(=O)(=O)N2CCN(C(=O)N3CCOCC3)CC2C(=O)NO)cc1 (centres undefined) .
4350

Quote Matrilysin (Homo sapiens) IC50 for entry COc1ccc(S(=O)(=O)N2CCN(C(=O)N3CCN(C)CC3)CC2C(=O)NO)cc1 (centres undefined) .
2690

Quote Matrilysin (Homo sapiens) IC50 for entry COc1ccc(S(=O)(=O)N2CCN(S(=O)(=O)c3sc(N)nc3C)CC2C(=O)NO)cc1 (centres undefined) .
1280
